Tested on: PC-3
experiment-notes: Antiproliferative activity against human PC-3 cells assessed as inhibition of cell growth incubated for 72 hrs by MTT assay
Format: functional, cell-based
condition: PC-3, 72 h
pIC50: −log10 of the molar value.
endpoint-name: pIC50

[1] CN1CCN(CCCC#Cc2c(OCc3ccc(Cl)cc3)ccc(-c3cc(C(F)(F)F)n[nH]3)c2O)CC1
[2] CN1CCN(CCC#Cc2ccc(-c3cc(C(F)(F)F)n[nH]3)c(O)c2-c2ccc(Cl)c(C(F)(F)F)c2)CC1
[3] CN1CCN(CCC#Cc2c(OCc3ccc(Cl)cc3)ccc(-c3cc(C(F)(F)F)n[nH]3)c2O)CC1
[4] Oc1c(-c2cc(C(F)(F)F)n[nH]2)ccc(C#CCCN2CCOCC2)c1-c1ccc(Cl)c(C(F)(F)F)c1
Q: Order by pIC50, ascending. Could you list the labels in the order requested?
Result: 3, 1, 2, 4
